Molecular target: hemagglutinin (HA) of influenza virus H7N3 A/NIBRG/60 (A/mallard/Netherlands/12/00) (influenza A virus)
Assay: cell-based or functional assay
Measured Parameter: average neutralization titer (nM)
// note: answer is a bare numeric in nM

Reported average neutralization titer of MD2303 (bispecific antibody) EVQLVESGGGLVQPGGSLRLSCAVSISIFDIYAMDWYRQAPGKQRDLVATSFRDGSTNYADSVKGRFTISRDNAKNTLYLQMNSLKPEDTAVYLCHVSLYRDPLGVAGGMGVYWGKGALVTVSSGGGGSGGGGSEVQLVESGGGLVQAGGSLKLSCAASGRTYAMGWFRQAPGKEREFVAHINALGTRTYYSDSVKGRFTISRDNAKNTEYLEMNNLKPEDTAVYYCTAQGQWRAAPVAVAAEYEFWGQGTQVTVSSGGGGSGGGGSEVQLVESGGGLVQPGGSLRLSCAATGFTLENKAIGWFRQTPGSEREGVLCISKSGSWTYYTDSMRGRFTISRDNAENTVYLQMDSLKPEDTAVYYCATTTAGGGLCWDGTTFSRLASSWGQGTQVTVSS : 10.2
